Collected one-nucleolus phenotype percent effect values appear next to each entry.
system: MCF10A; test: one-nucleolus phenotype percent effect (relative to siNT 0% and siNOL11 100%); higher = more cells with one nucleolus (ribosome biogenesis inhibition); conditions: 20 nM; 72 h
Provide the reading as a plain figure in %.

Sample answers from the record:
UGUUGCAAGUCGGUGGAGACGU [hsa-miR-4684-3p]    4.39
CGCGCGGCCGUGCUCGGAGCAG [hsa-miR-4479]    54.5
CAGAAGGGGAGUUGGGAGCAGA [hsa-miR-3154]    46.1
UCAGGCAAAGGGAUAUUUACAGA [hsa-miR-4742-5p]    -11.1
GUAAGGGACCGGAGAGUAGGA [hsa-miR-6892-5p]    20.5

I would be grateful if you could share the reported one-nucleolus phenotype percent effect for UGGUCAGAGGCAGCAGGAAAUGA [hsa-miR-6801-5p] .
-5.6

I would be grateful if you could share the reported one-nucleolus phenotype percent effect for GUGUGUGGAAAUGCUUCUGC [hsa-miR-147a] .
95.9

I would be grateful if you could share the reported one-nucleolus phenotype percent effect for AAGGGCUUCCUCUCUGCAGGAC [hsa-miR-3158-3p] .
32.8

I would be grateful if you could share the reported one-nucleolus phenotype percent effect for CUGGGGAGUGGCUGGGGAG [hsa-miR-6763-5p] .
30.5

I would be grateful if you could share the reported one-nucleolus phenotype percent effect for UCUCUCGGCUCCUCGCGGCUC [hsa-miR-3615] .
-7.12

I would be grateful if you could share the reported one-nucleolus phenotype percent effect for AAAAGUAUUUGCGGGUUUUGUC [hsa-miR-548l] .
-20.8

I would be grateful if you could share the reported one-nucleolus phenotype percent effect for UCACCUGGCUGGCCCGCCCAG [hsa-miR-6765-3p] .
-20.5

I would be grateful if you could share the reported one-nucleolus phenotype percent effect for AUGGCAUCGUCCCCUGGUGGCU [hsa-miR-4642] .
16.6

I would be grateful if you could share the reported one-nucleolus phenotype percent effect for GAUGAGCUCAUUGUAAUAUGAG [hsa-miR-556-5p] .
-2.48

I would be grateful if you could share the reported one-nucleolus phenotype percent effect for AGUGGCACAUGUUUGUUGUGAG [hsa-miR-891a-3p] .
35

I would be grateful if you could share the reported one-nucleolus phenotype percent effect for AGGUGGGUAUGGAGGAGCCCU [hsa-miR-6769a-5p] .
39.6

I would be grateful if you could share the reported one-nucleolus phenotype percent effect for UAACAAACACCUGUAAAACAGC [hsa-miR-5688] .
-7.14

I would be grateful if you could share the reported one-nucleolus phenotype percent effect for AUGCAGGCCUGUGUACAGCACU [hsa-miR-6811-5p] .
57

I would be grateful if you could share the reported one-nucleolus phenotype percent effect for CGGCUCUGGGUCUGUGGGGA [hsa-miR-760] .
7.07

I would be grateful if you could share the reported one-nucleolus phenotype percent effect for UCCAGGGAGACAGUGUGUGAG [hsa-miR-7113-5p] .
23.5

I would be grateful if you could share the reported one-nucleolus phenotype percent effect for UUGAACUGUUAAGAACCACUGGA [hsa-miR-203b-3p] .
29.5

I would be grateful if you could share the reported one-nucleolus phenotype percent effect for UAGAUAAAAUAUUGGUACCUG [hsa-miR-577] .
-23.7

I would be grateful if you could share the reported one-nucleolus phenotype percent effect for UUUCCUGUCCUCCAACCAGACC [hsa-miR-7152-5p] .
11.7

I would be grateful if you could share the reported one-nucleolus phenotype percent effect for UGGGCGAGGGGUGGGCUCUCAGAG [hsa-miR-4649-5p] .
1.85

---

test system: MCF10A; assay: percent viability (nuclei count relative to siNT); higher = more viable cells; conditions: 20 nM; 72 h
observed_property: percent viability (%)
Provide the reading as a plain figure in %.

Sample answers from the record:
AUCCCCAGAUACAAUGGACAA [hsa-miR-2355-5p]    68.5
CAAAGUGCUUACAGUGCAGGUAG [hsa-miR-17-5p]    71.5
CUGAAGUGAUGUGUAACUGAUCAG [hsa-miR-573]    69

Now examine the next entry.
I would be grateful if you could share the reported percent viability for UGGACCUCUCCUCCCCAG [hsa-miR-6861-3p] .
40.5

---

test system: MCF10A; assay: percent viability (nuclei count relative to siNT); higher = more viable cells; conditions: 20 nM; 72 h
observed_property: percent viability (%)
Provide the reading as a plain figure in %.

I would be grateful if you could share the reported percent viability for UGGCCGGAUGGGACAGGAGGCAU [hsa-miR-4743-5p] .
25.6

I would be grateful if you could share the reported percent viability for UGGCCCUUUGUACCCCUCCAG [hsa-miR-6851-3p] .
49.2

I would be grateful if you could share the reported percent viability for UUCAAGUAAUUCAGGUG [hsa-miR-1297] .
121

I would be grateful if you could share the reported percent viability for UGUGAUAUCGUGCUUCCUGGGA [hsa-miR-3689f] .
109

I would be grateful if you could share the reported percent viability for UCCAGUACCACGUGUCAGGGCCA [hsa-miR-770-5p] .
55.6

I would be grateful if you could share the reported percent viability for CUCAUCUGCAAAGAAGUAAGUG [hsa-miR-452-3p] .
21.6

I would be grateful if you could share the reported percent viability for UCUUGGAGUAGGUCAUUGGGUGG [hsa-miR-432-5p] .
34.1

I would be grateful if you could share the reported percent viability for AGCAUACACCUGUAGUCCUAGA [hsa-miR-5689] .
66.7

I would be grateful if you could share the reported percent viability for UCAGCAGGCAGGCUGGUGCAGC [hsa-miR-3619-5p] .
27.1

I would be grateful if you could share the reported percent viability for UUAGUCUCAUGAUCAGACACA [hsa-miR-4474-5p] .
29.8

I would be grateful if you could share the reported percent viability for AAGCGACCAUGAUGUAACUUCA [hsa-miR-4670-5p] .
49.2

---

tested on: MCF10A; test: one-nucleolus phenotype percent effect (relative to siNT 0% and siNOL11 100%); higher = more cells with one nucleolus (ribosome biogenesis inhibition); settings: 20 nM; 72 h
observed_property: one-nucleolus phenotype percent effect (%)
Provide the reading as a plain figure in %.

UAAUACUGCCUGGUAAUGAUGA [hsa-miR-200b-3p]    -28.6

Item AGACUUCCCAUUUGAAGGUGGC [hsa-miR-617] with MCF10A - one-nucleolus phenotype percent effect?
43.9

Item CCCUCAUCUUCCCCUCCUUUC [hsa-miR-6891-3p] with MCF10A - one-nucleolus phenotype percent effect?
36.8

Item CAAAAACUGCAAUUACUUUCA [hsa-miR-548ae] with MCF10A - one-nucleolus phenotype percent effect?
-34.4

Item GGGAAAAGGAAGGGGGAGGA [hsa-miR-6124] with MCF10A - one-nucleolus phenotype percent effect?
-29.7

---

system: MCF10A; assay: percent viability (nuclei count relative to siNT); higher = more viable cells; conditions: 20 nM; 72 h
observed_property: percent viability (%)
Provide the reading as a plain figure in %.

Sample answers from the record:
UCGUGUCUUGUGUUGCAGCCGG [hsa-miR-187-3p]    87.7
GGGGCUGGGGCCGGGGCCGAGC [hsa-miR-762]    59.8

Item AAUCGGACCCAUUUAAACCGGAG [hsa-miR-5188] with MCF10A - percent viability?
90.7

---

Collected one-nucleolus phenotype percent effect values appear next to each entry.
tested on: MCF10A; experiment: one-nucleolus phenotype percent effect (relative to siNT 0% and siNOL11 100%); higher = more cells with one nucleolus (ribosome biogenesis inhibition); conditions: 20 nM; 72 h
Provide the reading as a plain figure in %.

Sample answers from the record:
UUAGCGGUGGACCGCCCUGCG [hsa-miR-4321]    -12.2
UUCAUGAACUGGGUCUAGCUUGG [hsa-miR-7154-5p]    -15.2
UCAUUUUUGUGAUGUUGCAGCU [hsa-miR-153-5p]    -16.7
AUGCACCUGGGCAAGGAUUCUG [hsa-miR-500a-3p]    -2.54
UUUGGCAAUGGUAGAACUCACACU [hsa-miR-182-5p]    25

I would be grateful if you could share the reported one-nucleolus phenotype percent effect for GCCUGGAGCUACUCCACCAUCUC [hsa-miR-4254] .
7

I would be grateful if you could share the reported one-nucleolus phenotype percent effect for CCACUGCCUAUGCCCCACAG [hsa-miR-6890-3p] .
-16.6

I would be grateful if you could share the reported one-nucleolus phenotype percent effect for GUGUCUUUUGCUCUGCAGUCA [hsa-miR-511] .
-6.61

---

test system: MCF10A; assay: percent viability (nuclei count relative to siNT); higher = more viable cells; settings: 20 nM; 72 h
Collected percent viability values appear next to each entry.
Provide the reading as a plain figure in %.

Sample answers from the record:
CCUGGGCAGCGUGUGGCUGAAGG [hsa-miR-3187-5p]    66.4
CCAGGAGAUCCAGAGAGAAU [hsa-miR-4768-3p]    32.6
GACCUGGACAUGUUUGUGCCCAGU [hsa-miR-619]    128
UCGGGGCAUGGGGGAGGGAGGCUGG [hsa-miR-6775-5p]    57.8
CAAAACUGGCAAUUACUUUUGC [hsa-miR-548a-3p]    77.4

Item GCAGCCCAGCUGAGGCCUCUG [hsa-miR-4690-3p] with MCF10A - percent viability?
119

Item GAAGACUUCUUGGAUUACAGGGG [hsa-miR-8087] with MCF10A - percent viability?
112

Item UCUCAGUAAGUGGCACUCUGU [hsa-miR-4797-3p] with MCF10A - percent viability?
47.4

Item CAUCCGUCCGUCUGUCCAC [hsa-miR-4800-3p] with MCF10A - percent viability?
67.4

Item AUUGUUCUGUCUUUCUCCCAG [hsa-miR-6739-3p] with MCF10A - percent viability?
27.3

Item CCACCUCCCCUGCAAACGUCCA [hsa-miR-1306-5p] with MCF10A - percent viability?
35
